Catalogue of compounds with associated T/C
Test system: L1210 leukemia ip in BDF1 mice, survival T/C
Assay: NCI In Vivo Anticancer Drug Screen. Data for tumor model L1210 Leukemia (intraperitoneal) in B6D2F1 (BDF1) mice
Details: endpoint: mean survival time; dose: 100.0 mg/kg/injection; schedule: Q04DX003 (ip); vehicle: saline with Tween-80; higher = longer survival
Toxic doses and inconclusive results are not listed.

# count of solved cases: 3
NC1=C(Cl)C(=O)C(N)=C(Cl)C1=O = 98 % of control
Nc1c(Cl)cc([N+](=O)[O-])cc1Cl = 97 % of control
CCC1(CC)C(=O)C=CNC1=O = 107 % of control

Input: Reported T/C for L1210 leukemia ip in BDF1 mice, survival T/C, given CCN1CCC2CN(C(=S)Nc3ccccc3)CCN2C1=O (stereo not given) ?
Output: 97 % of control

Input: Reported T/C for L1210 leukemia ip in BDF1 mice, survival T/C, given COC1OC(CN2C(=O)c3ccccc3C2=O)C2OC(C)(C)OC12 (stereo not given) ?
Output: 106 % of control
